Reported IC50 values follow for various binders
# TARGET_DESC: T1, human DLL4 extracellular domain (human, UniProt Q9NR61 27-529)
# T1 construct: purified recombinant ECD; biotin-labelled or 6xHis-tagged depending on the assay; also called huDLL4 ECD; hu DLL4 ECD
# METHOD_NOTES: competition ELISA vs Notch-1
# Protocol: Plates were then washed 3 times with wash buffer (PBS, 0.05% Tween-20) and blocked with 200 μl/well blocking buffer (D-PBS, 1% BSA, 1 mM CaCl₂, 0.05% Tween-20) for 1 hour at 25° C. […] After a final wash, plates were developed using 100 μl/well substrate (TMB Sigma #T8665), and the reaction was stopped using 100 μl/well 1N HCl, and the absorbance was read at 450 nm. […]
Report as a plain number; the unit nM is understood.

# BINDER, IC50 (nM)
rows = [
    ("h1A11.4 (antibody, V domains shown, humanized IgG; also called VH.1/VL.2a 1A11) VH: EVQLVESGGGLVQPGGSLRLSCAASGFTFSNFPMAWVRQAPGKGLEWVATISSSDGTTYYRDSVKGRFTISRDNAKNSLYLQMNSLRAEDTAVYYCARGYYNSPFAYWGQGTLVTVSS VL: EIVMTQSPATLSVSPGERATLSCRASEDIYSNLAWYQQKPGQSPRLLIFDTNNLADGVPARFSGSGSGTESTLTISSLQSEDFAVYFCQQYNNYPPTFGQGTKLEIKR", 0.3),
    ("h1A11.2 (antibody, V domains shown, humanized IgG; also called VH.1/VL.1a 1A11) VH: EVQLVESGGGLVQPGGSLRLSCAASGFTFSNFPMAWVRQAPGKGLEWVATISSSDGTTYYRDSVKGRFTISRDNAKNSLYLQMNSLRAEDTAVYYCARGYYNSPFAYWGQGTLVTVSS VL: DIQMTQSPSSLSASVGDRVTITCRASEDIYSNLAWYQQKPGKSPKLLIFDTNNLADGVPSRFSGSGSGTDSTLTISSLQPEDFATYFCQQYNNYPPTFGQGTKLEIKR", 0.3),
]

query: Query (binder): h1A11.16 (antibody, V domains shown, humanized IgG; also called VH.2a/VL.2a 1A11) VH: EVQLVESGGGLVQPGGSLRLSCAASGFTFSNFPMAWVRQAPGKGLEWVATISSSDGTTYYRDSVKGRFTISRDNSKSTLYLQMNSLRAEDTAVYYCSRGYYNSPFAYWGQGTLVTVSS VL: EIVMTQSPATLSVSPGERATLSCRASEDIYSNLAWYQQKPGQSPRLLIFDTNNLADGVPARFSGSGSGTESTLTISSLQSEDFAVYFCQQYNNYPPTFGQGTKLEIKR ; field requested: IC50
result: 0.3
